Cited source for all entries: ChEMBL document CHEMBL5724801

Recorded Population Normal (%) values for a group of compounds are listed next.
- Test system: U2OS
- Test Summary: Multiplex assay against U2OS
- Type: toxicity, cell-based
- Experimental Setup: human, 12 h, 10 µM, compound concentration 10 uM

| Compound Structure String | Population Normal (%) |
| --- | --- |
| Cc1c(-c2cc(-c3ccccc3Cl)no2)cnn1C1CCNCC1.Cl | 100 |
| CC(C)(C)c1cc(C(C)(C)C)c(NC(=O)c2c[nH]c3ccccc3c2=O)cc1O | 100 |
| CCn1c(-c2ccncc2)cc2c1CCNC2=O | 100 |
| Cc1cnc(-c2cc(N3CCN(C(=O)CCS(C)(=O)=O)CC3)ncc2Cl)c(C)c1 | 98 |
| Cc1ccc(-c2c(C(=O)CF)n(CCCO)c3ncnc(N)c23)cc1 | 100 |
